Reported combination Emax values follow for various compounds
- System: AGS (Gastric Carcinoma)
- ASSAY METHOD TEXT: combination Emax (second highest fraction inhibited in the dose matrix, 72 h); higher = more inhibition; extreme values may be limits of the assay
MEASURED PARAMETER: combination Emax

compound="Cc1c2c(nn1C)CSCc1cc(n(C)n1)CSc1cc(c3ccccc3c1)OCCCc1c(C(=O)O)n(C)c3c-2c(Cl)ccc13 [AZD5991] + Cn1cnc2c(F)c(Nc3ccc(Br)cc3Cl)c(C(=O)NOCCO)cc21 [Selumetinib] (first compound max 1 µM, 7x7, partner max 3 µM)" tested_system="AGS (Gastric Carcinoma)" measured_parameter="combination Emax" readout_value=0.964
compound="COc1nnc2ccc(N3CCC(c4ccc(OCCN5CCN(C)C(=O)[C@H]5C)cc4)CC3)nn12 [AZD5153] + CCN(CCO)CCCOc1ccc2c(Nc3cc(CC(=O)Nc4cccc(F)c4)[nH]n3)ncnc2c1 [AZD2811] (first compound max 1 µM, 7x7, partner max 1 µM)" tested_system="AGS (Gastric Carcinoma)" measured_parameter="combination Emax" readout_value=0.936
compound="C[C@@H](c1ccc2nccn2c1)n1nnc2ncc(-c3cnn(C)c3)nc21 [Savolitinib] + Cc1c2c(nn1C)CSCc1cc(n(C)n1)CSc1cc(c3ccccc3c1)OCCCc1c(C(=O)O)n(C)c3c-2c(Cl)ccc13 [AZD5991] (first compound max 1 µM, 7x7, partner max 1 µM)" tested_system="AGS (Gastric Carcinoma)" measured_parameter="combination Emax" readout_value=0.241
compound="Cc1cc2ncnn2cc1Nc1ncc2c(n1)n(C1CCOCC1)c(=O)n2C [AZD7648] + CCN(CCO)CCCOc1ccc2c(Nc3cc(CC(=O)Nc4cccc(F)c4)[nH]n3)ncnc2c1 [AZD2811] (first compound max 10 µM, 7x7, partner max 1 µM)" tested_system="AGS (Gastric Carcinoma)" measured_parameter="combination Emax" readout_value=0.529
